# EXPERIMENTAL SYSTEM: BTK-1h (Homo sapiens)
# Construct: The BTK kinase domain was diluted to 2 μM in the buffer, and 2 μM 1h was added; made in house
# EXPERIMENT: High-throughput screening with 1h-labeled BTK
# Type: binding
# TEST SETTINGS: Dataset S2A; 200 μM compound, BTK-1h, 32 °C, 10 min
Listing of entries alongside the reported FI (650)/FI (620).
Give the figure only, with no unit attached.

Here are 5 compounds together with their reported answers.
Ask: Look up FI (650)/FI (620): O=c1cc(-c2ccc(O)cc2)oc2cc(O)cc(O)c12
Reply: 0.8396

Ask: Check COc1cc(-c2oc3cc(O)cc(O)c3c(=O)c2O)ccc1O too.
Reply: 1.5271

Ask: And COC(=O)C1=C(C)NC(C)=C(C(=O)O[C@@H]2CCCN(Cc3ccccc3)C2)[C@@H]1c1cccc([N+](=O)[O-])c1.Cl ?
Reply: 1.754

Ask: And then Cc1cc(N2CCOCC2)cc2[nH]c(-c3c(NC[C@@H](O)c4cccc(Cl)c4)cc[nH]c3=O)nc12 , what is it?
Reply: 1.235

Ask: And what about the compound OC1CCC(Oc2cccc3cnc(Nc4ccc5nc[nH]c5c4)nc23)CC1 (stereo not drawn) ?
Reply: 1.285

--- query ---
Ask: What measured FI (650)/FI (620) goes with CO[C@@H](C(=O)N1Cc2[nH]nc(NC(=O)c3ccc(N4CCN(C)CC4)cc3)c2C1)c1ccccc1 ?
Reply: 1.661

* * *

Reported FI (BTK-1h)/FI (BTK-1h+Inhibitor) at 620 nm values for the following compounds.
# EXPERIMENTAL SYSTEM: BTK-1h (Homo sapiens)
# Construct: The BTK kinase domain was diluted to 2 μM in the buffer, and 2 μM 1h was added; made in house
# EXPERIMENT: High-throughput screening with 1h-labeled BTK
# Format: binding
# TEST SETTINGS: Dataset S2A; 200 μM compound, BTK-1h, 32 °C, 10 min
Structures can show the parent of a compound that is named as a salt.
Answer with a number only.

Ask: What FI (BTK-1h)/FI (BTK-1h+Inhibitor) at 620 nm value was documented for this compound, CC(=O)O[C@@H]1CC[C@@]2(C)[C@@H](CC[C@]3(C)[C@@H]2C(=O)C=C2[C@@H]4[C@@H](C)[C@H](C)CC[C@]4(C)CC[C@]23C)[C@@]1(C)C(=O)O ?
Reply: 1.037

Ask: What about this compound? O=C(c1ccc(Oc2ccccc2)cc1Cl)c1c[nH]c2ncnc(N[C@@H]3CC[C@@H](CO)OC3)c12
Reply: 2.9215

Ask: Would you kindly repeat that for Cc1noc(C)c1-c1ccc(-c2cc(C(N)=O)c(NC(N)=O)s2)c(O[C@H]2CCNC2)c1 ?
Reply: 1.467

Ask: Repeat for the following compound: Cc1nc(N)sc1-c1ccnc(Nc2ccc(N3CCOCC3)cc2)n1
Reply: 1.071

Next:
Ask: Requested read-out: FI (BTK-1h)/FI (BTK-1h+Inhibitor) at 620 nm. Entry: CN1CCN(Cc2ccc(Nc3ncc(Cl)c(Nc4ccccc4S(=O)(=O)N(C)C)n3)cc2)CC1
Reply: 1.15

Ask: Note, next up: O=C(NCCCNc1nc(Nc2cccc(NC(=O)N3CCCC3)c2)ncc1I)c1cccs1
Reply: 1.055

Ask: Next up: Cc1cnc(C(=O)N[C@H]2CCCCC/C=C\[C@@H]3C[C@@]3(C(=O)NS(=O)(=O)C3CC3)NC(=O)[C@@H]3C[C@@H](Oc4nc5ccccc5c5ccccc45)CN3C2=O)cn1
Reply: 1.053

Ask: Queued: O=C1NC(=O)C(c2cnc3ccccn23)=C1c1cn2c3c(cc(F)cc13)CN(C(=O)N1CCCCC1)CC2
Reply: 1.0465

Ask: Another compound to look at: NCCOc1cc(C(=O)Nc2cc(OCCN)c3ccccc3n2)nc(C(=O)Nc2cc(OCCN)c3ccccc3n2)c1 [PCM-0215476-001, Pyridostatin Trifluoroacetate Salt]
Reply: 1.539

* * *

# EXPERIMENTAL SYSTEM: BTK-1h (Homo sapiens)
# Construct: The BTK kinase domain was diluted to 2 μM in the buffer, and 2 μM 1h was added; made in house
# EXPERIMENT: High-throughput screening with 1h-labeled BTK
# Format: binding
# TEST SETTINGS: Dataset S2A; 200 μM compound, BTK-1h, 32 °C, 10 min
FI (650)/FI (620) listing for selected molecules.
Reply: number alone, nothing else.

Ask: Consider the molecule shown here: Cc1cc(Nc2nc(N[C@@H](C)c3ccc(F)cc3)c(C#N)cc2F)n[nH]1 [PCM-0095250-002] What is its recorded FI (650)/FI (620)?
Reply: 1.215

Ask: Would you mind doing COc1ccc2c(O[C@@H]3C[C@H]4C(=O)N[C@]5(C(=O)NS(=O)(=O)C6CC6)C[C@H]5/C=C\CCCCN(C)C(=O)[C@@H]4C3)cc(-c3nc(C(C)C)cs3)nc2c1C [PCM-0215097-001] as well?
Reply: 0.9923

Ask: // next record Cl.Cl.O=C1c2c(O)ccc(O)c2C(=O)c2c(NCCNCCO)ccc(NCCNCCO)c21 [PCM-0065547-003]
Reply: 1.449

Ask: How about Cc1cc(C)nc(NS(=O)(=O)c2ccc(NC(=S)NC(=O)COc3ccc(Br)cc3Cl)cc2)n1 [PCM-0095801-002] ?
Reply: 0.8921

Ask: Again, but for COc1cc2nccc(Oc3ccc(NC(=O)Nc4cc(C)on4)c(Cl)c3)c2cc1OC [PCM-0094927-002]
Reply: 1.123

Further cases:
Ask: # input molecule: COc1nc2ccc(Br)cc2cc1[C@@H](c1ccccc1)[C@@](O)(CCN(C)C)c1cccc2ccccc12.O=C(O)/C=C/C(=O)O [PCM-0215093-001] ; wanted: its FI (650)/FI (620)
Reply: 1.148

Ask: Then this molecule: COc1ccc2[nH]cc(/C=C3\C(=O)Nc4ccc(NC(=O)CCN5CCCCC5)cc43)c2c1 [PCM-0216653-001]
Reply: 1.609

* * *

# EXPERIMENTAL SYSTEM: BTK-1h (Homo sapiens, UniProt Q06187)
# Construct: The BTK kinase domain was diluted to 2 μM in the buffer, and 2 μM 1h was added; made in house
# Sequence (Q06187 402-655): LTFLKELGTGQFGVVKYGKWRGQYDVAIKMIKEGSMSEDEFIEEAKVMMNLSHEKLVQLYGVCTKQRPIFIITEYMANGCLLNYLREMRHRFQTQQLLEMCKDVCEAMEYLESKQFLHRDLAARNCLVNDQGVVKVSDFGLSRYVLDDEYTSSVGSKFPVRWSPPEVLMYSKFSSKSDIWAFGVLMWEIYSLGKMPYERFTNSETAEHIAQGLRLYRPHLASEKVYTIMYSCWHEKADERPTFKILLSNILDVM
# EXPERIMENT: High-throughput screening with 1h-labeled BTK
# Format: binding
# TEST SETTINGS: Dataset S2A; 200 μM compound, BTK-1h, 32 °C, 10 min
Where a name gives a salt, the structure may show the parent alone.
As shown below, each of these compounds has a reported FI (650)/FI (620) value.
The answer should be a number; do not append a unit.

Worked examples, 6 compounds total:
Ask: // query FI (650)/FI (620) value for entry O=C(c1ccc(Nc2nccc(-c3cc4ccccc4s3)n2)cc1)N1CCC(N2CCCC2)CC1
Reply: 1.968

Ask: Lookup O=[N+]([O-])c1ccc(Nc2ccccc2-c2ccccc2)c2nonc12
Reply: 1.017

Ask: // repeat for COc1cc(O)c2c(=O)cc(-c3ccc(O)c(O)c3)oc2c1 and report
Reply: 2.385

Ask: Try this compound too: NCCOc1cc(C(=O)Nc2cc(OCCN)c3ccccc3n2)nc(C(=O)Nc2cc(OCCN)c3ccccc3n2)c1 [PCM-0215476-001, Pyridostatin Trifluoroacetate Salt]
Reply: 2.671

Ask: Next compound up: CNCc1ccc(C)c(NC(=O)c2ccc(Nc3nc(-c4ccccc4)c4ccccc4n3)cc2)c1
Reply: 1.264

Ask: Then Cl.O=C(c1ccc(OCCN2CCCCC2)cc1)c1c(-c2ccc(O)cc2)sc2cc(O)ccc12 ?
Reply: 1.378

// switching to the query compound
Ask: GET /values?readout=FI (650)/FI (620)&item= Cc1cc(N=Nc2ccc(S(=O)(=O)Nc3ccccn3)cc2)c(N)cc1O
Reply: 1.18

* * *

# EXPERIMENT: GSH reactivity assay
# Format: physicochemical
# TEST SETTINGS: 5 mM GSH in potassium phosphate buffer/DMF, 100 μM compound, pH 8, read-out: GSH t1/2
OUTCOME MEASURE: half-life at 100 μM

Ask: Recorded half-life at 100 μM for C=C(CN1CCC[C@@H](n2nc(-c3ccc(Oc4ccccc4)cc3)c3c(N)ncnc32)C1)C(=O)OCC , please?
Reply: < 0.167 h

Now for a further compound.
Ask: Param item = C#CCCCCC(=O)NC1CCN(C(=O)C(=C)CN2CCC[C@@H](n3nc(-c4ccc(Oc5ccccc5)cc4)c4c(N)ncnc43)C2)CC1 ; retrieve measured half-life at 100 μM.
Reply: > 100 h

* * *

Reported FI (BTK-1h)/FI (BTK-1h+Inhibitor) at 620 nm values for the following compounds.
# EXPERIMENTAL SYSTEM: BTK-1h (Homo sapiens)
# Construct: The BTK kinase domain was diluted to 2 μM in the buffer, and 2 μM 1h was added; made in house
# EXPERIMENT: High-throughput screening with 1h-labeled BTK
# Format: binding
# TEST SETTINGS: Dataset S2A; 200 μM compound, BTK-1h, 32 °C, 10 min
Reply: number alone, nothing else.

Here is how some compounds turned out for FI (BTK-1h)/FI (BTK-1h+Inhibitor) at 620 nm.
Ask: Suppose we examine the compound Cc1cnc(Nc2ccc(F)cc2Cl)nc1-c1c[nH]c(C(=O)N[C@H](CO)c2cccc(Cl)c2)c1 ; what FI (BTK-1h)/FI (BTK-1h+Inhibitor) at 620 nm value has been reported?
Reply: 1.033

Ask: Cool, now CN[C@H]1C(=O)N[C@@H]2Cc3ccc(cc3)Oc3cc4cc(c3O[C@@H]3O[C@H](C(=O)O)[C@@H](O)[C@H](O)[C@H]3NC(=O)CCCCCCCCC(C)C)Oc3ccc(cc3Cl)[C@@H](O)[C@@H]3NC(=O)[C@H](NC(=O)[C@@H]4NC(=O)[C@@H](NC2=O)c2cc(cc(O)c2Cl)Oc2cc1ccc2O)c1ccc(O)c(c1)-c1c(O[C@H]2O[C@H](CO)[C@@H](O)[C@H](O)[C@@H]2O)cc(O)cc1[C@@H](C(=O)NCCCN(C)C)NC3=O
Reply: 1.097

Ask: Repeat for the following compound: Cl.Cl.O=C1c2c(O)ccc(O)c2C(=O)c2c(NCCNCCO)ccc(NCCNCCO)c21
Reply: 1.019

Continuing:
Ask: Requested field: FI (BTK-1h)/FI (BTK-1h+Inhibitor) at 620 nm. Item: CN(c1ncccc1CNc1nc(Nc2ccc3c(c2)CC(=O)N3)ncc1C(F)(F)F)S(C)(=O)=O.O=S(=O)(O)c1ccccc1
Reply: 1.028

Ask: Again, but for COS(=O)(=O)[O-].C[n+]1c2ccccc2nc2ccccc21
Reply: 1.045
